The measured values listed here are drawn from the supplement of paper PMC11061612.

The reader will find reported combination Emax values listed item by item below.
Test system: KYSE-150 (Esophageal Squamous Cell Carcinoma)
Assay: combination Emax (second highest fraction inhibited in the dose matrix, 72 h); higher = more inhibition; extreme values may be limits of the assay
Number, no unit, nothing else.

The following compounds have reported results that may help.
compound	numericResult
CCN(CCO)CCCOc1ccc2c(Nc3cc(CC(=O)Nc4cccc(F)c4)[nH]n3)ncnc2c1 [AZD2811] + C[C@@H]1COCCN1C2=NC(=NC(=C2)C3(CC3)[S@](=N)(=O)C)C4=C5C=CNC5=NC=C4 [AZD6738] (first compound max 1 µM, 7x7, partner max 10 µM)	0.533
COc1cccc2c1C(=O)c1c(O)c3c(c(O)c1C2=O)C[C@@](O)(C(=O)CO)C[C@@H]3O[C@H]1C[C@H](N)[C@H](O)[C@H](C)O1 [Doxorubicin] + Cc1cc2ncnn2cc1Nc1ncc2c(n1)n(C1CCOCC1)c(=O)n2C [AZD7648] (first compound max 1 µM, 7x7, partner max 10 µM)	0.958
CC1(C)CCC(CN2CCN(c3ccc(C(=O)NS(=O)(=O)c4ccc(NCC5CCOCC5)c([N+](=O)[O-])c4)c(Oc4cnc5[nH]ccc5c4)c3)CC2)=C(c2ccc(Cl)cc2)C1 [Venetoclax] + Cn1cnc2c(F)c(Nc3ccc(Br)cc3Cl)c(C(=O)NOCCO)cc21 [Selumetinib] (first compound max 1 µM, 7x7, partner max 3 µM)	0.273

GET /value?item= Cn1cnc2c(F)c(Nc3ccc(Br)cc3Cl)c(C(=O)NOCCO)cc21 [Selumetinib] + CC(C)n1c(=O)n(C)c2cnc3cc(F)c(-c4ccc(OCCCN5CCCCC5)nc4)cc3c21 [AZD1390] (first compound max 10 µM, 7x7, partner max 0.3 µM) &field=combination Emax returns 0.259

GET /value?item= COc1cccc(OCCCN)c1-c1cc(Nc2cnc(C#N)cn2)n[nH]1 [Prexasertib] + CCc1c2c(nc3ccc(O)cc13)-c1cc3c(c(=O)n1C2)COC(=O)[C@]3(O)CC [SN-38] (first compound max 1 µM, 7x7, partner max 0.3 µM) &field=combination Emax returns 0.966

---

System: KYSE-50 (Esophageal Squamous Cell Carcinoma)
Assay: combination Emax (second highest fraction inhibited in the dose matrix, 72 h); higher = more inhibition; extreme values may be limits of the assay
The reader will find reported combination Emax values listed item by item below.
Number, no unit, nothing else.

molecule	combination Emax
Cc1c2c(nn1C)CSCc1cc(n(C)n1)CSc1cc(c3ccccc3c1)OCCCc1c(C(=O)O)n(C)c3c-2c(Cl)ccc13 [AZD5991] + C[C@@H]1COCCN1C2=NC(=NC(=C2)C3(CC3)[S@](=N)(=O)C)C4=C5C=CNC5=NC=C4 [AZD6738] (first compound max 1 µM, 7x7, partner max 10 µM)	0.643
COc1cccc(OCCCN)c1-c1cc(Nc2cnc(C#N)cn2)n[nH]1 [Prexasertib] + C[C@@H]1COCCN1C2=NC(=NC(=C2)C3(CC3)[S@](=N)(=O)C)C4=C5C=CNC5=NC=C4 [AZD6738] (first compound max 1 µM, 7x7, partner max 10 µM)	0.818
NC1(C(=O)N[C@@H](CCO)c2ccc(Cl)cc2)CCN(c2ncnc3[nH]ccc23)CC1 [Capivasertib] + C[C@@H]1COCCN1C2=NC(=NC(=C2)C3(CC3)[S@](=N)(=O)C)C4=C5C=CNC5=NC=C4 [AZD6738] (first compound max 10 µM, 7x7, partner max 10 µM)	0.676

GET /value?item= Cn1cnc2c(F)c(Nc3ccc(Br)cc3Cl)c(C(=O)NOCCO)cc21 [Selumetinib] + CCN(CCO)CCCOc1ccc2c(Nc3cc(CC(=O)Nc4cccc(F)c4)[nH]n3)ncnc2c1 [AZD2811] (first compound max 10 µM, 7x7, partner max 1 µM) &field=combination Emax returns 0.409

---

The reader will find reported Bliss excess values listed item by item below.
System: KLE (Endometrial Carcinoma)
Assay: Bliss excess, mean over the matrix (fraction); higher = more synergy
Number, no unit, nothing else.

The following molecules have reported results that may help.
molecule	testedTarget	numericResult
CN(CCO)CC[C@H](CSc1ccccc1)Nc1ccc(S(=O)(=O)NC(=O)c2ccc(N3CCC([C@@H](O)c4ccccc4-c4ccc(Cl)cc4)CC3)cc2)cc1S(=O)(=O)C(F)(F)F [AZD4320] + Cc1cc2ncnn2cc1Nc1ncc2c(n1)n(C1CCOCC1)c(=O)n2C [AZD7648] (first compound max 1 µM, 7x7, partner max 10 µM)	KLE (Endometrial Carcinoma)	-0.0116
COc1nnc2ccc(N3CCC(c4ccc(OCCN5CCN(C)C(=O)[C@H]5C)cc4)CC3)nn12 [AZD5153] + CCN(CCO)CCCOc1ccc2c(Nc3cc(CC(=O)Nc4cccc(F)c4)[nH]n3)ncnc2c1 [AZD2811] (first compound max 1 µM, 7x7, partner max 1 µM)	KLE (Endometrial Carcinoma)	-0.0704
COc1nnc2ccc(N3CCC(c4ccc(OCCN5CCN(C)C(=O)[C@H]5C)cc4)CC3)nn12 [AZD5153] + CN(CC[C@H](CSC1=CC=CC=C1)NC2=C(C=C(C=C2)S(=O)(=O)NC(=O)C3=CC=C(C=C3)N4CCC(CC4)[C@H](C5=CC=CC=C5C6=CC=C(C=C6)Cl)O)S(=O)(=O)C(F)(F)F)CCO [AZD4320] (first compound max 1 µM, 7x7, partner max 1 µM)	KLE (Endometrial Carcinoma)	0.0847
Cc1c2c(nn1C)CSCc1cc(n(C)n1)CSc1cc(c3ccccc3c1)OCCCc1c(C(=O)O)n(C)c3c-2c(Cl)ccc13 [AZD5991] + CC1(C)CCC(CN2CCN(c3ccc(C(=O)NS(=O)(=O)c4ccc(NCC5CCOCC5)c([N+](=O)[O-])c4)c(Oc4cnc5[nH]ccc5c4)c3)CC2)=C(c2ccc(Cl)cc2)C1 [Venetoclax] (first compound max 1 µM, 7x7, partner max 1 µM)	KLE (Endometrial Carcinoma)	-0.0505
COc1cccc(OCCCN)c1-c1cc(Nc2cnc(C#N)cn2)n[nH]1 [Prexasertib] + C=CCn1c(=O)c2cnc(Nc3ccc(N4CCN(C)CC4)cc3)nc2n1-c1cccc(C(C)(C)O)n1 [AZD1775] (first compound max 1 µM, partner max 1 µM)	KLE (Endometrial Carcinoma)	0.112

GET /value?item= C=CCn1c(=O)c2cnc(Nc3ccc(N4CCN(C)CC4)cc3)nc2n1-c1cccc(C(C)(C)O)n1 [AZD1775] + C[C@@H]1COCCN1C2=NC(=NC(=C2)C3(CC3)[S@](=N)(=O)C)C4=C5C=CNC5=NC=C4 [AZD6738] (first compound max 1 µM, partner max 10 µM) &field=Bliss excess returns -0.0361

GET /value?item= COc1nnc2ccc(N3CCC(c4ccc(OCCN5CCN(C)C(=O)[C@H]5C)cc4)CC3)nn12 [AZD5153] + Cc1c2c(nn1C)CSCc1cc(n(C)n1)CSc1cc(c3ccccc3c1)OCCCc1c(C(=O)O)n(C)c3c-2c(Cl)ccc13 [AZD5991] (first compound max 1 µM, 7x7, partner max 1 µM) &field=Bliss excess returns -0.0228

---

Test system: H-EMC-SS (Chondrosarcoma)
Assay: Bliss excess, mean over the matrix (fraction); higher = more synergy
The reader will find reported Bliss excess values listed item by item below.
Number, no unit, nothing else.

GET /value?item= N#Cc1cnc(Nc2cc(NC[C@H]3CNCCO3)c(C(F)(F)F)cn2)cn1 [SRA737] + Nc1ccn([C@@H]2O[C@H](CO)[C@@H](O)C2(F)F)c(=O)n1 [Gemcitabine] (first compound max 10 µM, 7x7, partner max 0.3 µM) &field=Bliss excess returns -0.0056

GET /value?item= CC1(C)CCC(CN2CCN(c3ccc(C(=O)NS(=O)(=O)c4ccc(NCC5CCOCC5)c([N+](=O)[O-])c4)c(Oc4cnc5[nH]ccc5c4)c3)CC2)=C(c2ccc(Cl)cc2)C1 [Venetoclax] + C[C@@H](Nc1cc(F)cc(F)c1)c1cc(C(=O)N(C)C)cc2c(=O)cc(N3CCOCC3)oc12 [AZD8186] (first compound max 1 µM, 7x7, partner max 3 µM) &field=Bliss excess returns -0.0159

GET /value?item= CN(C)CCCOc1ccc(-c2ccc3ncc4c(c3c2)n(C2CCOCC2)c(=O)n4C)cn1 [AZD0156] + O=C(c1cc(Cc2n[nH]c(=O)c3ccccc23)ccc1F)N1CCN(C(=O)C2CC2)CC1 [Olaparib] (first compound max 3 µM, partner max 3 µM) &field=Bliss excess returns 0.029

GET /value?item= N#Cc1cnc(Nc2cc(NC[C@H]3CNCCO3)c(C(F)(F)F)cn2)cn1 [SRA737] + CCc1c2c(nc3ccc(O)cc13)-c1cc3c(c(=O)n1C2)COC(=O)[C@]3(O)CC [SN-38] (first compound max 10 µM, 7x7, partner max 0.3 µM) &field=Bliss excess returns -0.0264

---

System: EMC-BAC-2 (Non-Small Cell Lung Carcinoma)
Test: combination Emax (second highest fraction inhibited in the dose matrix, 72 h); higher = more inhibition; extreme values may be limits of the assay
measuredAttribute: combination Emax
Number, no unit, nothing else.

compound	measuredAttribute	numericResult
NC1(C(=O)N[C@@H](CCO)c2ccc(Cl)cc2)CCN(c2ncnc3[nH]ccc23)CC1 [Capivasertib] + C[C@@H]1COCCN1C2=NC(=NC(=C2)C3(CC3)[S@](=N)(=O)C)C4=C5C=CNC5=NC=C4 [AZD6738] (first compound max 10 µM, 7x7, partner max 10 µM)	combination Emax	0.728
Cn1cnc2c(F)c(Nc3ccc(Br)cc3Cl)c(C(=O)NOCCO)cc21 [Selumetinib] + C=CCn1c(=O)c2cnc(Nc3ccc(N4CCN(C)CC4)cc3)nc2n1-c1cccc(C(C)(C)O)n1 [AZD1775] (first compound max 10 µM, partner max 1 µM)	combination Emax	0.412

GET /value?item= CC1(C)CCC(CN2CCN(c3ccc(C(=O)NS(=O)(=O)c4ccc(NCC5CCOCC5)c([N+](=O)[O-])c4)c(Oc4cnc5[nH]ccc5c4)c3)CC2)=C(c2ccc(Cl)cc2)C1 [Venetoclax] + C[C@@H]1COCCN1C2=NC(=NC(=C2)C3(CC3)[S@](=N)(=O)C)C4=C5C=CNC5=NC=C4 [AZD6738] (first compound max 1 µM, 7x7, partner max 10 µM) &field=combination Emax returns 0.612
